target desc: T1, Recombinant human IL-1beta (rhIL-1b) (human, UniProt P01584 117-269)
T1 construct: R&D Systems Cat. No. 201-LB/CF; also called IL-1β; human IL-1β
experiment summary: Biacore low-res, mAb captured, 25C; IL-1β in solution (118 nM) over captured mAb; low-resolution Biacore, 25 C
observed property: kon (M⁻¹ s⁻¹)
Unit M⁻¹ s⁻¹ implied. Number only.

In: So what's the measured kon for this one? 5.5.1 (antibody, IgG4, V domains shown, lambda; also called mAb 5.5.1; Ab 5.5.1) VH: QVQLVESGGGVVQPGRSLRLSCAASGFTFSSYGMHWVRQAPGKGLEWVAVIWYDGDNKYYADSVQGRFTISRDNSKNTLYLQMNSLRPEDTAVYYCARERSSSWYFDYWGQGTLVTVSS VL: QSALTQPASVSGSPGQSITISCTGTSSDVGSYNLVSWYQQHPGKAPKLMIYEVSKRPSGISNRFSGSKSGNTASLTISGLQAEDEADYYCCSYAGSSTWVFGGGTKLTVL
Out: 1.8e+06
